- target-desc: yeast iso-1 cytochrome c WT* (pseudo-wild-type), ferric (Saccharomyces cerevisiae, UniProt P00044, C108S/K78A/K79A/K85G/M86K)
- Sequence (P00044 2-109 K78A/K79A/K85G/M86K/C108S): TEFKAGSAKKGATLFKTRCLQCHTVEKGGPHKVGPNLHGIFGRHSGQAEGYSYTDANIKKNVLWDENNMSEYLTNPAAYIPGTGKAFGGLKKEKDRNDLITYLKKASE
- assay-details: equilibrium titration, Soret absorbance at […] and […] nm, one-site fit
pKd: −log10 of the molar value.

{"smiles-string": "c1c[nH]cn1", "pKd": 2.63}

* * *

- target-desc: yeast iso-1 cytochrome c WT* (pseudo-wild-type), ferric (Saccharomyces cerevisiae, UniProt P00044, C108S/K78A)
- Sequence (P00044 2-109 K78A/C108S): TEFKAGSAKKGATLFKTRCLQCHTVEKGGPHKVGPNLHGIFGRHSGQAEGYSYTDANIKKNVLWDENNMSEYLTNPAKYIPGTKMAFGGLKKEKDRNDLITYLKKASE
- assay-details: equilibrium titration, Soret absorbance at […] and […] nm, one-site fit
measured-property: Kd

{"smiles-string": "c1c[nH]cn1", "reported-measurement": "2780 µM"}
